test: Emulsion stability testing of nonionic emulsifiers, aromatic solvent series; assay type: physicochemical; design: key: G = good; F = fair; P = poor; conditions: Bifenthrin 240 g/L in Aromatic 100, 1000 ppm water
property name: Spon. (spontaneity)

Guide cases for Spon. (spontaneity), answers given:
CCC=CCCCCCCCCOCCOCCOCCOCCOCCOCCOCCOCCOCCOCCOCCOCCOCCOCCOCCO (mixture of isomers) [A12-16] | P
C=CCCCCCCCCOCCO [A10-4] | P
C=CCCCCCCCCOCCOCCOCCO [A10-7] | P
CCC=CCCCCCCCCOCCOCCOCCOCCOCCO (mixture of isomers) [A12-10] | F
C=CCCCCCCCCOCCOCCOCCOCCOCCOCCOCCO [A10-13] | G

Which measured Spon. (spontaneity) value corresponds to CCC=CCCCCCCCCOCCOCCOCCO (mixture of isomers) [A12-7] ?
P

What would you report for C=CCCCCCCCCOCCOCCOCCOCCOCCO [A10-10] ?
F

What would you report for C=CCCCCCCCCOCCOCCOCCOCCOCCOCCOCCOCCOCCOCCOCCOCCOCCOCCOCCO [A10-16] ?
P

What would you report for CCC=CCCCCCCCCOCCOCCOCCOCCOCCOCCOCCO (mixture of isomers) [A12-13] ?
G

What would you report for CCC=CCCCCCCCCOCCO (mixture of isomers) [A12-4] ?
P

====

test: Emulsion stability testing of nonionic emulsifiers, aromatic solvent series; format: physicochemical; details: Bifenthrin 240 g/L in Aromatic 100, 34 ppm water
property name: 24 h separation, amount (mL)

CCC=CCCCCCCCCOCCOCCOCCOCCOCCOCCOCCOCCOCCOCCOCCOCCOCCOCCOCCO (mixture of isomers) | 6

1 = C=CCCCCCCCCOCCOCCOCCOCCOCCOCCOCCOCCOCCOCCOCCOCCOCCOCCOCCO
2 = C=CCCCCCCCCOCCOCCOCCOCCOCCO
Hey, between 1 and 2 which has a smaller measured 24 h separation, amount? Refer to your chosen item by its label in the answer.
2

====

assay: Emulsion stability testing of nonionic emulsifiers, Hallcomid solvent series; format: physicochemical; parameters: key: C = creamy; CO = creamy oil; O = oil; GC = gritty cream; NS = no separation; OC = oily cream; conditions: Tebuconazole 360 g/L in Hallcomid M-8-10, 34 ppm water
property name: 1 h separation, appearance

Guide cases for 1 h separation, appearance, answers given:
CCC=CCCCCCCCCOCCOCCOCCOCCOCCOCCOCCOCCOCCOCCOCCOCCOCCOCCOCCO (mixture of isomers) [A12-16] | C
CCC=CCCCCCCCCOCCOCCOCCOCCOCCO (mixture of isomers) [A12-10] | C
CCC=CCCCCCCCCOCCOCCOCCO (mixture of isomers) [A12-7] | C
C=CCCCCCCCCOCCOCCOCCO [A10-7] | C
C=CCCCCCCCCOCCOCCOCCOCCOCCOCCOCCOCCOCCOCCOCCOCCOCCOCCOCCO [A10-16] | C

Which measured 1 h separation, appearance value corresponds to C=CCCCCCCCCOCCOCCOCCOCCOCCO [A10-10] ?
C

What would you report for CCC=CCCCCCCCCOCCOCCOCCOCCOCCOCCOCCO (mixture of isomers) [A12-13] ?
C

What would you report for C=CCCCCCCCCOCCOCCOCCOCCOCCOCCOCCO [A10-13] ?
C

What would you report for CCC=CCCCCCCCCOCCO (mixture of isomers) [A12-4] ?
C

What would you report for C=CCCCCCCCCOCCO [A10-4] ?
C

====

test: Emulsion stability testing of nonionic emulsifiers, aromatic solvent series; type: physicochemical; parameters: key: C = creamy; CO = creamy oil; O = oil; GC = gritty cream; NS = no separation; OC = oily cream; conditions: 2,4-D ester 480 g/L in Exxsol D-110, 1000 ppm water
property name: 1 h separation, appearance

CCC=CCCCCCCCCOCCO (mixture of isomers) | O
CCC=CCCCCCCCCOCCOCCOCCOCCOCCOCCOCCOCCOCCOCCOCCOCCOCCOCCOCCO (mixture of isomers) | C
CCC=CCCCCCCCCOCCOCCOCCO (mixture of isomers) | O
CCC=CCCCCCCCCOCCOCCOCCOCCOCCO (mixture of isomers) | CO

Field: next compound
Which measured 1 h separation, appearance value corresponds to "C=CCCCCCCCCOCCO" ?
O

====

test: Emulsion stability testing of nonionic emulsifiers, aromatic solvent series; assay type: physicochemical; details: Tebuconazole 360 g/L in N-methyl-2-pyrrolidone, 34 ppm water
property name: 1 h separation, amount (mL)

Guide cases for 1 h separation, amount, answers given:
CCC=CCCCCCCCCOCCOCCOCCOCCOCCOCCOCCOCCOCCOCCOCCOCCOCCOCCOCCO (mixture of isomers) [A12-16] | 1.8
CCC=CCCCCCCCCOCCO (mixture of isomers) [A12-4] | 2.3
CCC=CCCCCCCCCOCCOCCOCCOCCOCCOCCOCCO (mixture of isomers) [A12-13] | 1.8
CCC=CCCCCCCCCOCCOCCOCCOCCOCCO (mixture of isomers) [A12-10] | 2.6
C=CCCCCCCCCOCCOCCOCCO [A10-7] | 2

1 = C=CCCCCCCCCOCCOCCOCCOCCOCCO [A10-10]
2 = C=CCCCCCCCCOCCOCCOCCOCCOCCOCCOCCOCCOCCOCCOCCOCCOCCOCCOCCO [A10-16]
Hi there! Just curious which has the higher 1 h separation, amount between 1 and 2 . Refer to your chosen item by its label in the answer.
1

====

test: Emulsion stability testing of nonionic emulsifiers, Hallcomid solvent series; assay type: physicochemical; conditions: Tebuconazole 360 g/L in Hallcomid M-8-10, 1000 ppm water
property name: 1 h separation, amount (mL)

C=CCCCCCCCCOCCOCCOCCOCCOCCO | 3.5
C=CCCCCCCCCOCCOCCOCCOCCOCCOCCOCCO | 3
C=CCCCCCCCCOCCOCCOCCO | 3

a = C=CCCCCCCCCOCCOCCOCCOCCOCCOCCOCCOCCOCCOCCOCCOCCOCCOCCOCCO
b = CCC=CCCCCCCCCOCCO (mixture of isomers)
Hey, between a and b which has a smaller measured 1 h separation, amount? Refer to your chosen item by its label in the answer.
a

====

experiment: Emulsion stability testing of nonionic emulsifiers, aromatic solvent series; format: physicochemical; settings: 2,4-D ester 480 g/L in Exxsol D-110, 1000 ppm water
property name: 1 h separation, amount (mL)

Guide cases for 1 h separation, amount, answers given:
CCC=CCCCCCCCCOCCO (mixture of isomers) | 4.7
CCC=CCCCCCCCCOCCOCCOCCOCCOCCOCCOCCOCCOCCOCCOCCOCCOCCOCCOCCO (mixture of isomers) | 2.9
C=CCCCCCCCCOCCOCCOCCOCCOCCO | 4

a = C=CCCCCCCCCOCCOCCOCCO
b = C=CCCCCCCCCOCCOCCOCCOCCOCCOCCOCCOCCOCCOCCOCCOCCOCCOCCOCCO
Hi there! Just curious which has the higher 1 h separation, amount between a and b . Refer to your chosen item by its label in the answer.
a
(a: 4 mL, b: 2.8 mL)

====

Entries and their measured 24 h separation, amount follow.
assay: Emulsion stability testing of nonionic emulsifiers, Hallcomid solvent series; format: physicochemical; details: Bifenthrin 240 g/L in Hallcomid M-8-10, 1000 ppm water

Guide cases for 24 h separation, amount, answers given:
CCC=CCCCCCCCCOCCOCCOCCO (mixture of isomers) [A12-7] | 2 O, 3.5 CO
C=CCCCCCCCCOCCOCCOCCOCCOCCOCCOCCO [A10-13] | 6 mL
CCC=CCCCCCCCCOCCO (mixture of isomers) [A12-4] | 2 O, 3 CO
CCC=CCCCCCCCCOCCOCCOCCOCCOCCOCCOCCOCCOCCOCCOCCOCCOCCOCCOCCO (mixture of isomers) [A12-16] | 2 O, 3.6 CO
CCC=CCCCCCCCCOCCOCCOCCOCCOCCOCCOCCO (mixture of isomers) [A12-13] | 3 O, 2 CO
CCC=CCCCCCCCCOCCOCCOCCOCCOCCO (mixture of isomers) [A12-10] | 3 O, 2 CO
C=CCCCCCCCCOCCO [A10-4] | 3.5 O, 3 CO
C=CCCCCCCCCOCCOCCOCCOCCOCCO [A10-10] | 4 O, 2 CO
C=CCCCCCCCCOCCOCCOCCOCCOCCOCCOCCOCCOCCOCCOCCOCCOCCOCCOCCO [A10-16] | 5.4 mL

Field: next compound
Which measured 24 h separation, amount value corresponds to C=CCCCCCCCCOCCOCCOCCO [A10-7] ?
3 O, 3 CO

====

assay: Emulsion stability testing of nonionic emulsifiers, Hallcomid solvent series; type: physicochemical; design: key: C = creamy; CO = creamy oil; O = oil; GC = gritty cream; NS = no separation; OC = oily cream; conditions: Tebuconazole 360 g/L in Hallcomid M-8-10, 1000 ppm water
property name: 1 h separation, appearance

Guide cases for 1 h separation, appearance, answers given:
CCC=CCCCCCCCCOCCO (mixture of isomers) | C
C=CCCCCCCCCOCCOCCOCCO | C
CCC=CCCCCCCCCOCCOCCOCCO (mixture of isomers) | C
C=CCCCCCCCCOCCO | C
CCC=CCCCCCCCCOCCOCCOCCOCCOCCOCCOCCO (mixture of isomers) | C

Which measured 1 h separation, appearance value corresponds to CCC=CCCCCCCCCOCCOCCOCCOCCOCCO (mixture of isomers) ?
C

What would you report for "C=CCCCCCCCCOCCOCCOCCOCCOCCOCCOCCOCCOCCOCCOCCOCCOCCOCCOCCO" ?
C

What would you report for "C=CCCCCCCCCOCCOCCOCCOCCOCCO" ?
C

What would you report for CCC=CCCCCCCCCOCCOCCOCCOCCOCCOCCOCCOCCOCCOCCOCCOCCOCCOCCOCCO (mixture of isomers) ?
C

What would you report for "C=CCCCCCCCCOCCOCCOCCOCCOCCOCCOCCO" ?
C
